Kindly state inhibition for each of the entries shown.
Tested Target: Hexose transporter 1 (Plasmodium falciparum) (UniProt O97467)
Experiment Description: ST_JUDE_LEISH: Cytotoxicity at 2uM final concentration against transgenic Leishmania Mexicana promastigotes LmPfHT that are glucose transport deficient and complemented with the Plasmodium falciparum hexose transporter. Activity is measured by DNA content using SYBR green in vitro
Type: functional
Please state the value followed by its unit.

// solved cases for inhibition follow
[[record]]
compound = "O=[N+]([O-])c1cccc(CNC2CCN(Cc3ccc4ccccc4c3)CC2)c1"
tested_target = "Hexose transporter 1 (Plasmodium falciparum) (UniProt O97467)"
measurement = "12.4%"

[[record]]
compound = "CCCCCCN1CCCN(Cc2ccc(C(=O)Nc3ccc(C(C)(C)C)cc3)cc2)CC1"
tested_target = "Hexose transporter 1 (Plasmodium falciparum) (UniProt O97467)"
measurement = "1.84%"

[[record]]
compound = "Cc1nc(-c2nc(NCc3ccc4c(c3)OCO4)ncc2-c2ccsc2)sc1C"
tested_target = "Hexose transporter 1 (Plasmodium falciparum) (UniProt O97467)"
measurement = "-0.48%"

[[record]]
compound = "CS(=O)(=O)c1cccc(-c2cnc(N)c3cc(-c4cccc(F)c4)ccc23)c1"
tested_target = "Hexose transporter 1 (Plasmodium falciparum) (UniProt O97467)"
measurement = "1.63%"


Now consider a different compound.
Notebook: O=C(NCCCCN1CCC2c3cccc(O)c3CCC21)c1ccc(-c2ccccc2)cc1 (stereo not given) , inhibition read as 5.38%
